# MEASUREMENT_TARGET: USP7, Active human recombinant protein (Homo sapiens)
# Construct: purchased CP Lot; 20200225001
# Sequence (Q93009 whole entry): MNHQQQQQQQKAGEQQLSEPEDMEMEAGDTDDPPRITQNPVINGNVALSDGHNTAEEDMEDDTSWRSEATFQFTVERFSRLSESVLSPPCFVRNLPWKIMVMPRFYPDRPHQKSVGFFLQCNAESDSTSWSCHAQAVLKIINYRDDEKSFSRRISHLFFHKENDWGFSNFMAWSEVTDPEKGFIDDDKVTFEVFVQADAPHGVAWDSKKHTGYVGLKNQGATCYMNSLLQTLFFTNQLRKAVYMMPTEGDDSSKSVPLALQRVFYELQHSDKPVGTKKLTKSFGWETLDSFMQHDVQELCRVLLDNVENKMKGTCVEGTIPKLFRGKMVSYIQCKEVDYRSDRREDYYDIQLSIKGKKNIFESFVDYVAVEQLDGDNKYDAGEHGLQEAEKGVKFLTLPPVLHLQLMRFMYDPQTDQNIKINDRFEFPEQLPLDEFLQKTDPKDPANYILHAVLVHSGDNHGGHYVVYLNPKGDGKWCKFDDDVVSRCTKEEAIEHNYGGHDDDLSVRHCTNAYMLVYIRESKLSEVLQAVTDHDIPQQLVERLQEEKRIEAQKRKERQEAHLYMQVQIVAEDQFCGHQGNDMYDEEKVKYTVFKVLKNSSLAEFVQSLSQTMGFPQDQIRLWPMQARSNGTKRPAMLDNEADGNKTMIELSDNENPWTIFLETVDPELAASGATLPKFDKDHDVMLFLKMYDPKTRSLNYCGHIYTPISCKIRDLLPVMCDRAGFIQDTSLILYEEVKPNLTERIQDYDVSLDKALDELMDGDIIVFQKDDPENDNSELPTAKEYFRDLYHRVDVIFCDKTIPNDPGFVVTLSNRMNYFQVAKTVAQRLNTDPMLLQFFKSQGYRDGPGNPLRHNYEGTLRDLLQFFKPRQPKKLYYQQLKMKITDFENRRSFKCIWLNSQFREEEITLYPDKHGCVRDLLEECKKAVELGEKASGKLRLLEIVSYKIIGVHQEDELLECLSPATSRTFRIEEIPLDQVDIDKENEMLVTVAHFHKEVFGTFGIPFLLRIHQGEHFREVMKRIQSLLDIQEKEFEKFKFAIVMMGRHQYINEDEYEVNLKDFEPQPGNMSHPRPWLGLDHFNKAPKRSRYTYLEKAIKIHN
# ASSAY_COMMENT: USP7 assay (Ubiquitin-Rhodamine 110 enzymatic assay)
# Type: biochemical
# REPORTED_CONDITIONS: read-out: IC50
Recorded measurements of IC50, one per entry

Examples with answers:
>>> result("CN(C)CCCOc1ccc2c(=O)n(CC3(O)CCN(C(=O)[C@@H](CCCNC(=O)c4ccc5c(Cl)c(C(N)=O)cnc5c4)Cc4ccccc4)CC3)cnc2c1")
"< 0.02 µM"
>>> result("CN(C)CCCOc1ccc2c(=O)n(CC3(O)CCN(C(=O)C(CCCNC(=O)c4ccc5c(Cl)cc(C6CC6)nc5c4)Cc4ccccc4)CC3)cnc2c1 (centres unmarked) [Compound 116]")
"< 0.02 µM"
>>> result("CN(C)CCC(=O)Nc1ccc2c(=O)n(CC3(O)CCN(C(=O)C(CCCNC(=O)c4ccc5c(Cl)c6c(nc5c4)COCC6)Cc4ccccc4)CC3)cnc2c1 (centres unmarked) [Compound 89]")
"0.02 to 0.1 µM"
>>> result("CN(C)CCCOc1ccc2c(=O)n(CC3(O)CCN(C(=O)C(Cc4ccccc4)N(C)CCNC(=O)c4ccc5c(Cl)c(C(N)=O)cnc5c4)CC3)cnc2c1 (centres unmarked)")
"< 0.02 µM"
>>> result("CN(C)CCC(=O)Nc1ccc2c(=O)n(CC3(O)CCN(C(=O)C(CCCNC(=O)N4CCc5c(Cl)ccnc5C4)Cc4ccccc4)CC3)cnc2c1 (centres unmarked) [Compound 43]")
"0.02 to 0.1 µM"

Consider the compound CN1CCN(CCC(=O)Nc2ccc3c(=O)n(CC4(O)CCN(C(=O)[C@H](CCCNC(=O)c5ccc6c(Cl)ccnc6c5)Cc5ccccc5)CC4)cnc3c2)CC1 [Compound 58] and give its measured IC50.
> 1 µM

Consider the compound CN1CCN(CCOc2ccc3ncn(CC4(O)CCN(C(=O)C(CCCNC(=O)c5ccc6c(Cl)ccnc6c5)Cc5ccccc5)CC4)c(=O)c3c2)CC1 (centres unmarked) [Compound 38] and give its measured IC50.
> 1 µM

Consider the compound CN(C)CCC(=O)Nc1ccc2c(=O)n(CC3(O)CCN(C(=O)C(CCCNC(=O)c4ccc5c(Cl)c6c(nc5c4)C4CCC6C4)Cc4ccccc4)CC3)cnc2c1 (centres unmarked) [Compound 91] and give its measured IC50.
0.02 to 0.1 µM
